Reference source: patent US8778939B2

biological target: 6His-Tev-LRRK2 (1326-2527) (Homo sapiens); construct: A LRRK2 cDNA encoding residues 1326-2527 was received from Dundee University; made in house; host or cells: Spodoptera frugiperda (Sf9) insect cells, baculovirus; experiment: LRRK2 AlphaScreen desensitised protein substrate assay; assay type: biochemical; conditions: excess of ATP present (2 mM ATP); read-out: pIC50 in the LRRK2 alphascreen desensitised protein substrate assay (converted)
Sequence (Q5S007 1326-2527): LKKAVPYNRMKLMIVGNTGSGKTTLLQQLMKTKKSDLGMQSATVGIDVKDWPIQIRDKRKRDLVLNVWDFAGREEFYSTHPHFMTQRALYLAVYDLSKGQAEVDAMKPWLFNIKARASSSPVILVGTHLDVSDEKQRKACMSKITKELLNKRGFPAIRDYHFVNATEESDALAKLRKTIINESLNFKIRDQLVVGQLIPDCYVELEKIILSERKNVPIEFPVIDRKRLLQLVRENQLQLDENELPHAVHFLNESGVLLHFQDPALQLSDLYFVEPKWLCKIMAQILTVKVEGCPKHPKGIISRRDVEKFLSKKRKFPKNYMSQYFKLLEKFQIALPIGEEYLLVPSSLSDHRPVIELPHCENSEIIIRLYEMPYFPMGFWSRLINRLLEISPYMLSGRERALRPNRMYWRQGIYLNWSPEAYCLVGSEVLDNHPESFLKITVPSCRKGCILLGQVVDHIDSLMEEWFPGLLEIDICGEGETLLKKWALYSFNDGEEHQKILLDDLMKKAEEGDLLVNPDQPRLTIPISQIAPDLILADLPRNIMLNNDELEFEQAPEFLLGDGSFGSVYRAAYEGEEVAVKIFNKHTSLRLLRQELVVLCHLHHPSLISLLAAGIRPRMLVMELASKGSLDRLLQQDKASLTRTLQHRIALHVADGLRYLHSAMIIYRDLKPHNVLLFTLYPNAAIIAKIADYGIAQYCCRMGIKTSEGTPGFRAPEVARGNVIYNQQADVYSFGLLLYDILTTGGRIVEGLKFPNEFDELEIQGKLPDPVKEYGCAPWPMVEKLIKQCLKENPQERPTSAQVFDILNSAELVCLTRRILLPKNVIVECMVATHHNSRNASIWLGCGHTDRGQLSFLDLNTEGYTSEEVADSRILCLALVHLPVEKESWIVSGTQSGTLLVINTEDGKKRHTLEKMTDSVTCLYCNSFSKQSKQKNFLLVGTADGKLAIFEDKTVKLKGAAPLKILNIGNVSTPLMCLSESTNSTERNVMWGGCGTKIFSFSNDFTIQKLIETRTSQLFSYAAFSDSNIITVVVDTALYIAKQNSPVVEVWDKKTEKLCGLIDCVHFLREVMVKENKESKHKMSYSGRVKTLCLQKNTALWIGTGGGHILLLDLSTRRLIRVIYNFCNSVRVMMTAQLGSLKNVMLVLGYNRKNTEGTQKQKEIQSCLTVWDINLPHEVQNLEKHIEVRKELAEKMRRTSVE
Assignment: determine reported IC50 for the given compounds.

In: # get_value(readout= IC50, system= 6His-Tev-LRRK2 (1326-2527) (Homo sapiens)) for Cc1oncc1NC(=O)c1cc(-c2ccncc2)ccc1OCc1ccccc1 [Example 62]
Out: > 25.1 µM

In: # get_value(readout= IC50, system= 6His-Tev-LRRK2 (1326-2527) (Homo sapiens)) for C[C@@H]1CN(c2ccc(OCc3ccccc3)c(C(=O)Nc3cccnc3)c2)C[C@H](C)N1C [Example 103]
Out: ≤ 20 µM

In: # get_value(readout= IC50, system= 6His-Tev-LRRK2 (1326-2527) (Homo sapiens)) for O=C(Nc1cccnc1)c1cc(Br)ccc1OCc1cccc(Cl)c1 [Example 13]
Out: > 25.1 µM

In: # get_value(readout= IC50, system= 6His-Tev-LRRK2 (1326-2527) (Homo sapiens)) for Cn1cc(NC(=O)c2cc(-c3ccncc3)ccc2OCc2ccccc2)cn1 [Example 65]
Out: ≤ 20 µM

In: # get_value(readout= IC50, system= 6His-Tev-LRRK2 (1326-2527) (Homo sapiens)) for O=C(Nc1cccnc1)c1cc(C(=O)N2CCOCC2)ccc1OCc1ccc(F)cc1 [Example 127]
Out: ≤ 20 µM

In: # get_value(readout= IC50, system= 6His-Tev-LRRK2 (1326-2527) (Homo sapiens)) for CCOC(=O)CCc1ccc(OCc2ccccc2)c(C(=O)Nc2cccnc2)c1 [Example 87]
Out: ≤ 20 µM

In: # get_value(readout= IC50, system= 6His-Tev-LRRK2 (1326-2527) (Homo sapiens)) for O=C(Nc1cccnc1)c1cc(CN2CCOCC2)ccc1OCc1ccc(F)cc1 [Example 117]
Out: ≤ 20 µM

In: # get_value(readout= IC50, system= 6His-Tev-LRRK2 (1326-2527) (Homo sapiens)) for O=C(Nc1ccnnc1)c1cc(-c2ccncc2)ccc1OCc1ccccc1 [Example 74]
Out: ≤ 20 µM

In: # get_value(readout= IC50, system= 6His-Tev-LRRK2 (1326-2527) (Homo sapiens)) for O=C(Nc1cccnc1)c1cc(CN2CCOCC2)ccc1OCc1ccc(F)c(F)c1 [Example 112]
Out: ≤ 20 µM

In: # get_value(readout= IC50, system= 6His-Tev-LRRK2 (1326-2527) (Homo sapiens)) for CN1CCN(C(=O)c2ccc(OCc3ccccc3)c(C(=O)Nc3cccnc3)c2)CC1 [Example 35]
Out: ≤ 20 µM

In: # get_value(readout= IC50, system= 6His-Tev-LRRK2 (1326-2527) (Homo sapiens)) for O=C(Nc1cccnc1)c1cc(Br)ccc1OCc1ccccc1 [Example 2]
Out: ≤ 20 µM

In: # get_value(readout= IC50, system= 6His-Tev-LRRK2 (1326-2527) (Homo sapiens)) for COc1cccc(COc2ccc(Br)cc2C(=O)Nc2cccnc2)c1 [Example 18]
Out: > 25.1 µM

In: # get_value(readout= IC50, system= 6His-Tev-LRRK2 (1326-2527) (Homo sapiens)) for Cc1nocc1NC(=O)c1cc(-c2cnn(CCN3CCOCC3)c2)ccc1OCc1ccc(F)cc1 [Example 129]
Out: > 25.1 µM

In: # get_value(readout= IC50, system= 6His-Tev-LRRK2 (1326-2527) (Homo sapiens)) for CN(C)Cc1ccc(OCc2ccccc2)c(C(=O)Nc2cccnc2)c1 [Example 71]
Out: ≤ 20 µM

In: # get_value(readout= IC50, system= 6His-Tev-LRRK2 (1326-2527) (Homo sapiens)) for O=C(Nc1cccnc1)c1cc(CCCN2CCOCC2)ccc1OCc1ccc(F)cc1 [Example 136]
Out: ≤ 20 µM

In: # get_value(readout= IC50, system= 6His-Tev-LRRK2 (1326-2527) (Homo sapiens)) for COC(=O)NCc1ccc(OCc2ccc(F)cc2)c(C(=O)Nc2cccnc2)c1 [Example 118]
Out: ≤ 20 µM

In: # get_value(readout= IC50, system= 6His-Tev-LRRK2 (1326-2527) (Homo sapiens)) for O=C(Nc1cn[nH]c1)c1cc(Br)ccc1OCc1ccccc1 [Example 51]
Out: ≤ 20 µM

In: # get_value(readout= IC50, system= 6His-Tev-LRRK2 (1326-2527) (Homo sapiens)) for N#Cc1cccc(COc2ccc(Br)cc2C(=O)Nc2cccnc2)c1 [Example 15]
Out: > 25.1 µM

In: # get_value(readout= IC50, system= 6His-Tev-LRRK2 (1326-2527) (Homo sapiens)) for CNCCOc1ccc(OCc2ccccc2)c(C(=O)Nc2cccnc2)c1 [Example 48]
Out: ≤ 20 µM

In: # get_value(readout= IC50, system= 6His-Tev-LRRK2 (1326-2527) (Homo sapiens)) for Cn1cc(-c2ccc(OCc3ccccc3C#N)c(C(=O)Nc3cccnc3)c2)cn1 [Example 113]
Out: ≤ 20 µM

In: # get_value(readout= IC50, system= 6His-Tev-LRRK2 (1326-2527) (Homo sapiens)) for Cc1ccncc1NC(=O)c1cc(-c2ccncc2)ccc1OCc1ccccc1 [Example 52]
Out: > 25.1 µM

In: # get_value(readout= IC50, system= 6His-Tev-LRRK2 (1326-2527) (Homo sapiens)) for Cc1nocc1NC(=O)c1cc(C(=O)N2CCOCC2)ccc1OCc1ccc(F)cc1F [Example 126]
Out: ≤ 20 µM

In: # get_value(readout= IC50, system= 6His-Tev-LRRK2 (1326-2527) (Homo sapiens)) for O=C(Nc1cccnc1)c1cc(Br)ccc1OCc1ccccc1F [Example 58]
Out: ≤ 20 µM

In: # get_value(readout= IC50, system= 6His-Tev-LRRK2 (1326-2527) (Homo sapiens)) for CC(C)(O)c1ccc(OCc2ccccc2)c(C(=O)Nc2cccnc2)c1 [Example 76]
Out: ≤ 20 µM

In: # get_value(readout= IC50, system= 6His-Tev-LRRK2 (1326-2527) (Homo sapiens)) for COc1ccccc1COc1ccc(-c2cnn(C)c2)cc1C(=O)Nc1cccnc1 [Example 114]
Out: ≤ 20 µM

In: # get_value(readout= IC50, system= 6His-Tev-LRRK2 (1326-2527) (Homo sapiens)) for O=C(Nc1cccnc1CO)c1cc(-c2ccncc2)ccc1OCc1ccccc1 [Example 55]
Out: > 25.1 µM

In: # get_value(readout= IC50, system= 6His-Tev-LRRK2 (1326-2527) (Homo sapiens)) for O=C(Nc1cccnc1)c1cc(OC[C@@H]2CCCN2)ccc1OCc1ccccc1 [Example 46]
Out: ≤ 20 µM

In: # get_value(readout= IC50, system= 6His-Tev-LRRK2 (1326-2527) (Homo sapiens)) for Cn1cc(-c2ccc(OCc3ccc(F)c(F)c3)c(C(=O)Nc3ccnnc3)c2)cn1 [Example 105]
Out: ≤ 20 µM

In: # get_value(readout= IC50, system= 6His-Tev-LRRK2 (1326-2527) (Homo sapiens)) for O=C(Nc1ccnnc1)c1cc(-c2ccncc2)ccc1OCc1ccc(F)cc1 [Example 89]
Out: ≤ 20 µM

In: # get_value(readout= IC50, system= 6His-Tev-LRRK2 (1326-2527) (Homo sapiens)) for O=C(Nc1cccnc1)c1cc(C(=O)N2CCOCC2)ccc1OCc1ccccc1 [Example 38]
Out: ≤ 20 µM

In: # get_value(readout= IC50, system= 6His-Tev-LRRK2 (1326-2527) (Homo sapiens)) for O=C(Nc1cccnc1)c1cc(N2CCCCC2)ccc1OCc1ccccc1 [Example 33]
Out: ≤ 20 µM

In: # get_value(readout= IC50, system= 6His-Tev-LRRK2 (1326-2527) (Homo sapiens)) for CN1CCC[C@@H]1COc1ccc(OCc2ccccc2)c(C(=O)Nc2cccnc2)c1 [Example 45]
Out: ≤ 20 µM

In: # get_value(readout= IC50, system= 6His-Tev-LRRK2 (1326-2527) (Homo sapiens)) for O=C(Nc1cccnc1)c1cc(-c2cccnc2)ccc1OCc1ccccc1 [Example 101]
Out: ≤ 20 µM

In: # get_value(readout= IC50, system= 6His-Tev-LRRK2 (1326-2527) (Homo sapiens)) for O=C(O)CCc1ccc(OCc2ccccc2)c(C(=O)Nc2cccnc2)c1 [Example 88]
Out: > 25.1 µM

In: # get_value(readout= IC50, system= 6His-Tev-LRRK2 (1326-2527) (Homo sapiens)) for CN1CCN(c2ccc(OCc3ccccc3)c(C(=O)Nc3cccnc3)c2)CC1 [Example 32]
Out: ≤ 20 µM

In: # get_value(readout= IC50, system= 6His-Tev-LRRK2 (1326-2527) (Homo sapiens)) for O=C(Nc1cccnc1)c1cc(-c2cnn(CCN3CCOCC3)c2)ccc1OCc1ccc(F)cc1 [Example 128]
Out: ≤ 20 µM
